test: Cytotoxicity of didemnins (Table II); assay type: cell-based; settings: Dose 0.25 ng/mL
Starred links: 1 amine or outer side, 2 acyl side, 3 side chain; linkers in the order of their positions; H or OH if unused. Positions of bridges follow the written chain, without caps; N, C: chain ends. Non-standard residues stand in square brackets, D forms with d. Residues, ends and D or L forms follow the SMILES beside them. *: point of attachment. X1 = CC[C@H](C)[C@@H](N[*:1])[C@@H](O)CC(=O)O[C@H](C(=O)[C@H](C)C(=O)[*:2])C(C)C; NMeY = CN[C@@H](Cc1ccc(O)cc1)C(=O)O; dNMeL = CN[C@H](CC(C)C)C(=O)O; pGlu = O=C1CC[C@@H](C(=O)O)N1; Pyruvoyl = CC(=O)C(=O)*; Boc = CC(C)(C)OC(=O)*; Lac = C[C@H](O)C(=O)O
The following molecules are listed with their measured Inhibition (%) values.
Please give a number only; it is taken to be in %.

CC[C@H](C)[C@H]1NC(=O)[C@@H](NC(=O)[C@@H](CC(C)C)N(C)C(=O)[C@@H]2CCCN2C(=O)C(C)=O)[C@@H](C)OC(=O)[C@H](Cc2ccc(OC)cc2)N(C)C(=O)[C@@H]2CCCN2C(=O)[C@H](CC(C)C)NC(=O)[C@@H](C)C(=O)[C@H](C(C)C)OC(=O)C[C@@H]1O [Dehydrodidemnin B (6), Dehydrodidemnin B] (Pyruvoyl-P[dNMeL]T[X1]LP[NMeY](Me); ester 3-C) :: 95
CC[C@H](C)[C@H]1NC(=O)[C@@H](NC(=O)[C@@H](CC(C)C)N(C)C(=O)[C@@H]2CCCN2C(=O)[C@H](C)OC(=O)[C@@H](N)CCC(N)=O)[C@@H](C)OC(=O)[C@H](Cc2ccc(OC)cc2)N(C)C(=O)[C@@H]2CCCN2C(=O)[C@H](CC(C)C)NC(=O)[C@@H](C)C(=O)[C@H](C(C)C)OC(=O)C[C@@H]1OC(=O)[C@@H](N)CCC(N)=O [Gln[GlnIst^2]-Didemnin B (160), Glutaminyl-glutaminyl-didemnin B] :: 0
CC[C@H](C)[C@H]1NC(=O)[C@@H](NC(=O)[C@@H](CC(C)C)N(C)C(=O)[C@@H]2CCCN2C(=O)[C@H](C)OC(=O)[C@H](CCC(N)=O)NC(=O)[C@@H]2CCC(=O)N2)[C@@H](C)OC(=O)[C@H](Cc2ccc(OC)cc2)N(C)C(=O)[C@@H]2CCCN2C(=O)[C@H](CC(C)C)NC(=O)[C@@H](C)C(=O)[C@H](C(C)C)OC(=O)C[C@@H]1O [Didemnin M (5), L-Pyroglutaminyl-L-glutaminyl-didemnin B] ([pGlu]Q[Lac]P[dNMeL]T[X1]LP[NMeY](Me); ester 6-C) :: 94

# context switch: different molecule, same Inhibition (%)
Q. Name the recorded Inhibition (%) for CC[C@H](C)[C@H]1NC(=O)[C@@H](NC(=O)[C@@H](CC(C)C)N(C)C(=O)[C@@H]2CCCN2C(=O)OC(C)(C)C)[C@@H](C)OC(=O)[C@H](Cc2ccc(OC)cc2)N(C)C(=O)[C@@H]2CCCN2C(=O)[C@H](CC(C)C)NC(=O)[C@@H](C)C(=O)[C@H](C(C)C)OC(=O)C[C@@H]1O [Boc-Pro-didemnin A (158), Boc-L-prolyl-didemnin A] (Boc-P[dNMeL]T[X1]LP[NMeY](Me); ester 3-C) .
A. 0
